Recorded IC50 for the following compounds
measured.target: Indoleamine 2,3-Dioxygenase (IDO1) in SKOV-3 cells (Homo sapiens)
Construct: endogenous in cells
Sequence (P14902 whole entry): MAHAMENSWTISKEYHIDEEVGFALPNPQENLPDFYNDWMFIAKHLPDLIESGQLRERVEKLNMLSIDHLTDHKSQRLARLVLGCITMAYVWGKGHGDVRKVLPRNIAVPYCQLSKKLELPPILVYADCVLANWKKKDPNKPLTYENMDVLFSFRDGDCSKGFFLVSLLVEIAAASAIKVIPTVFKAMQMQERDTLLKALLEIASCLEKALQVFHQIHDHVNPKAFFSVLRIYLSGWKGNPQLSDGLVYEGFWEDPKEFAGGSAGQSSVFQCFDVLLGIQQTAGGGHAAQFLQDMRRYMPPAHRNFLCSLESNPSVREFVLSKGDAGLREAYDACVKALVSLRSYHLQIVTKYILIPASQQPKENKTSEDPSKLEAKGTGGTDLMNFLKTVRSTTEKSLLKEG
test.protocol: SKOV-3 cellular indoleamine 2,3-dioxygenase assay
condition.parameters: 50 ng/ml Interferon gamma, 100 μM L-Tryptophan, 24 hours, N-Formylkynurenin fluorescence, read-out: cell based activity (IC50)
Protocol: SKOV-3 Cellular Indoleamine 2,3-Dioxygenase Assay SKOV-3 cells were obtained from the American Type Culture Collection (ATCC® HTB-77™) and maintained in McCoy's medium (Pan Biotech) supplemented with 10% fetal bovine serum and 1% Penicilin/Streptomycin. Cells were kept at 37° C. in a humidified incubator with 5% CO2. […]

Consider the worked cases shown below.
> print(dat)
                                   compound  measured.attribute   readout.value
1  O=C(Nc1ccc(Cl)cc1)C(=O)N1CCC(c2ccccc2)CC1 [1/1]                IC50        < 100 nM
2  Cc1cc(Cl)ccc1NC(=O)C(=O)N1CCC(c2ccnc3ccc(F)cc23)CC1 [1/32]                IC50  100 to 1000 nM
3  N#Cc1ccc2nccc(C3CCN(C(=O)C(=O)Nc4ccc(Cl)cc4)CC3)c2c1 [1/44]                IC50  100 to 1000 nM
4  O=C(Nc1ccc(Cl)cc1)C(=O)N1CC[C@@H](c2ccnc3ccc(F)cc23)[C@H](O)C1 (single isomer, unassigned) [Example 10a]                IC50        < 100 nM
5  O=C(Nc1ccc(Cl)cc1)C(=O)N1CCC2(CC1)OCc1cc(C(F)(F)F)ccc12 [100/12]                IC50        < 100 nM

**Query** Fill in: IC50 of CO[C@H]1CN(C(=O)C(=O)Nc2ccc(Cl)cc2)CC[C@@H]1c1ccnc2ccc(F)cc12 (single isomer, unassigned) [10/2b] is ___
**Result** < 100 nM

**Query** Then what about the compound O=C(Nc1ccc(Cl)cn1)C(=O)N1C2CCC1CC(c1ccnc3ccccc13)C2 (centres unmarked) [1/10] ?
**Result** 100 to 1000 nM

**Query** Then what about the compound O=C(Nc1ccc(Cl)cn1)C(=O)N1CCC2(CCc3ccccc32)CC1 [Example 100] ?
**Result** < 100 nM

**Query** Then what about the compound CS(=O)(=O)c1ccc(NC(=O)C(=O)N2CCC(c3ccnc4ccc(F)cc34)CC2)cc1 [5/10] ?
**Result** > 1000 nM

**Query** Then what about the compound O=C(N[C@H]1CCc2ccccc21)C(=O)N1CCC(c2ccnc3ccc(F)cc23)CC1 [8/2] ?
**Result** > 1000 nM
